Entry source: paper PMC5019376

B1: TIR1 (wild type, epitope-tagged, expressed in Nicotiana) [Arabidopsis] / GST-IAA3 [Arabidopsis] (parent)
chain 1: MQKRIALSFPEEVLEHVFSFIQLDKDRNSVSLVCKSWYEIERWCRRKVFIGNCYAVSPATVIRRFPKVRSVELKGKPHFADFNLVPDGWGGYVYPWIEAMSSSYTWLEEIRLKRMVVTDDCLELIAKSFKNFKVLVLSSCEGFSTDGLAAIAATCRNLKELDLRESDVDDVSGHWLSHFPDTYTSLVSLNISCLASEVSFSALERLVTRCPNLKSLKLNRAVPLEKLATLLQRAPQLEELGTGGYTAEVRPDVYSGLSVALSGCKELRCLSGFWDAVPAYLPAVYSVCSRLTTLNLSYATVQSYDLVKLLCQCPKLQRLWVLDYIEDAGLEVLASTCKDLRELRVFPSEPFVMEPNVALTEQGLVSVSMGCPKLESVLYFCRQMTNAALITIARNRPNMTRFRLCIIEPKAPDYLTLEPLDIGFGAIVEHCKDLRRLSLSGLLTDKVFEYIGTYAKKMEMLSVAFAGDSDLGMHHVLSGCDSLRKLEIRDCPFGDKALLANASKLETMRSLWMSSCSVSFGACKLLGQKMPKLNVEVIDERGAPDSRPESCPVERVFIYRTVAGPRFDMPGFVWNMDQDSTMRFSRQIITTNGL
chain 2: MDEFVNLKETELRLGLPGTDNVCEAKERVSCCNNNNKRVLSTDTEKEIESSSRKTETSPPRKAQIVGWPPVRSYRKNNIQSKKNESEHEGQGIYVKVSMDGAPYLRKIDLSCYKGYSELLKALEVMFKFSVGEYFERDGYKGSDFVPTYEDKDGDWMLIGDVPWEMFICTCKRLRIMKGSEAKGLGCGV

Variants of: B1
method-description: pull-down (semi in vitro, GST-IAA3 with Nicotiana cell extracts, anti-HA blot)
test-conditions: 10 µM 2,4-D
Binary call on ratio to parent: class 1 from 0.5 upward, class 0 beneath that.

1. chain 1 C140A = class 1
2. chain 1 G142A = class 0
3. chain 1 V117A = class 0
4. chain 1 I151A = class 0
